- targetSystem: cell-bound CD73 on SK-MEL-28 cells (Homo sapiens (Human), UniProt P21589)
- Sequence (P21589 27-574): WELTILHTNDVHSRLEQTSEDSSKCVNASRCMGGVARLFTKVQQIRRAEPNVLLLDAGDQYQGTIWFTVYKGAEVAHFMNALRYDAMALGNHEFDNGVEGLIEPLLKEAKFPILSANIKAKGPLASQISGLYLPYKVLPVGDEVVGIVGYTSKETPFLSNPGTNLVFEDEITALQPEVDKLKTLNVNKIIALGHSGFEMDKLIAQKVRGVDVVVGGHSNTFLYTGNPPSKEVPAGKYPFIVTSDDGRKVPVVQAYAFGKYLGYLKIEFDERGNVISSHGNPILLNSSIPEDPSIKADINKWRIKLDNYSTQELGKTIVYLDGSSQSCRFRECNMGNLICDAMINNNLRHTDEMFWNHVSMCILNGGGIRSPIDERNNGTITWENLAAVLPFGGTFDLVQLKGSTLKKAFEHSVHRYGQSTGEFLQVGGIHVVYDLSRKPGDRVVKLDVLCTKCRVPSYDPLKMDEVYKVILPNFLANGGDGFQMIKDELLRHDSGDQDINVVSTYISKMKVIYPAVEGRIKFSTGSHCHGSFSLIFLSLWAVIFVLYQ
- protocol: Inhibition of endogenous, cell-bound CD73 enzyme activity in SK-MEL-28 cells (AMP hydrolysis, Malachite Green)
- Format: cell-based
- runConditions: 100 μM AMP, class symbols (Table 6)
pIC50: −log10 of the molar value.
assayReadout: pIC50

The reported cell-bound CD73 on SK-MEL-28 cells (Homo sapiens (Human), UniProt P21589) pIC50 of Nc1nc(Cl)nc2c1ncn2[C@@H]1O[C@H](COC(Cc2ccc(C(=O)O)cc2)(C(=O)O)C(=O)O)[C@@H](O)[C@H]1O is > 6.00
